Target protein (sequence): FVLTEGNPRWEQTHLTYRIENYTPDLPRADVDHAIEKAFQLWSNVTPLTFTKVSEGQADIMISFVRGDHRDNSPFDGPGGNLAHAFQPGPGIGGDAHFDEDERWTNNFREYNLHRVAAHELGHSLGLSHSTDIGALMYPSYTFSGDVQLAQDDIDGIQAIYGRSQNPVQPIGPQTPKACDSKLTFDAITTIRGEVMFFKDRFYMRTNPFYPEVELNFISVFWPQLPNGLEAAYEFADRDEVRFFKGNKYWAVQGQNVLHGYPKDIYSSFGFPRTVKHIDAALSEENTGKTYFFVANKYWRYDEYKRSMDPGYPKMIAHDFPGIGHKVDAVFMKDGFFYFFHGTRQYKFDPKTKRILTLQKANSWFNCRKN
Quick reference for pKi among some compounds
Please note pKi is a logarithmic value: minus log10 of concentration in mol/L. Answer with that number alone.

CC(C)C[C@@]1([C@@H](CCN2C(=O)c3ccccc3C2=O)C(=O)NO)CCN(Cc2cccc(F)c2)C1=O (relative stereo)	5.72
CC(C)C[C@@]1([C@@H](CCNC(=O)c2cccc(F)c2)C(=O)NO)CCN(CCc2ccc(F)cc2)C1=O (relative stereo)	7.74

We next turn to a different compound, shown below.
Entry CC(C)C[C@@]1([C@@H](CCN2C(=O)c3ccc(F)cc3C2=O)C(=O)NO)CCN(CCc2ccccc2)C1=O [Example 63] ; pKi = 5.82

====

- MEASUREMENT_TARGET: Collagenase (Homo sapiens, UniProt P03956)
- Sequence (P03956 100-469): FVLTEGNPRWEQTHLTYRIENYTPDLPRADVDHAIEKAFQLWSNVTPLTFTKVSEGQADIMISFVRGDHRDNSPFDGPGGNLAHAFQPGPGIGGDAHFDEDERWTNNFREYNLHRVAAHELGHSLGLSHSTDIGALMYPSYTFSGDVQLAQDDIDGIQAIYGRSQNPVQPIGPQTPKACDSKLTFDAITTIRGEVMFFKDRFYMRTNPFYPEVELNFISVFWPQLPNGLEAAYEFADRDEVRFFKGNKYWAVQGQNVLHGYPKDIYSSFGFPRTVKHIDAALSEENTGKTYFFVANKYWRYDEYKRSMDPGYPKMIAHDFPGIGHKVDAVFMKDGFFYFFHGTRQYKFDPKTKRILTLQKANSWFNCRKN
pKi: −log10 of the molar value.
Decision: pKi compared against 6; not below it gives rule met, below it gives rule not met.

# count of solved cases: 6
CC(C)C[C@@]1([C@@H](CCN2C(=O)c3ccc(N)cc3C2=O)C(=O)NO)CCN(CCc2ccccc2)C1=O (relative stereo) [Example 9]	rule not met
CC(C)C[C@@H](C(=O)Nc1ccccn1)N1CC[C@](CC(=O)NO)(CC(C)C)C1=O [Example 49]	rule met
CC(C)CC1(CC(=O)NO)CCN(Cc2ccccc2)C1=O (stereo not shown) [Example 23]	rule met
CC(C)C[C@@]1(CC(=O)NO)CCN([C@@H](Cc2ccccc2)C(=O)NC2CCN(Cc3ccccc3)CC2)C1=O [Example 43]	rule met
CC(C)C[C@@]1([C@@H](CCN2C(=O)c3ccccc3C2=O)C(=O)NO)CCN(Cc2ccccc2)C1=O (relative stereo) [Example 22]	rule not met
CC(C)C[C@@]1([C@@H](CCN2C(=O)c3ccccc3C2=O)C(=O)NO)CCN(CCCc2ccccc2)C1=O (relative stereo) [Example 67]	rule not met

For the next question, use this molecule.
input: Textbook exercise: given the entry CCCOc1ccc2c(c1)C(=O)N(CCC(C(=O)NO)C1(CC(C)C)CCN(CCc3ccccc3)C1=O)C2=O (stereo not shown) [Example 62] , state whether its pKi is greater than or equal to 6.
output: rule not met
